- target or test system: Calcium-activated potassium channel subunit alpha-1 (Mus musculus) (UniProt Q08460)
- Sequence (Q08460 whole entry): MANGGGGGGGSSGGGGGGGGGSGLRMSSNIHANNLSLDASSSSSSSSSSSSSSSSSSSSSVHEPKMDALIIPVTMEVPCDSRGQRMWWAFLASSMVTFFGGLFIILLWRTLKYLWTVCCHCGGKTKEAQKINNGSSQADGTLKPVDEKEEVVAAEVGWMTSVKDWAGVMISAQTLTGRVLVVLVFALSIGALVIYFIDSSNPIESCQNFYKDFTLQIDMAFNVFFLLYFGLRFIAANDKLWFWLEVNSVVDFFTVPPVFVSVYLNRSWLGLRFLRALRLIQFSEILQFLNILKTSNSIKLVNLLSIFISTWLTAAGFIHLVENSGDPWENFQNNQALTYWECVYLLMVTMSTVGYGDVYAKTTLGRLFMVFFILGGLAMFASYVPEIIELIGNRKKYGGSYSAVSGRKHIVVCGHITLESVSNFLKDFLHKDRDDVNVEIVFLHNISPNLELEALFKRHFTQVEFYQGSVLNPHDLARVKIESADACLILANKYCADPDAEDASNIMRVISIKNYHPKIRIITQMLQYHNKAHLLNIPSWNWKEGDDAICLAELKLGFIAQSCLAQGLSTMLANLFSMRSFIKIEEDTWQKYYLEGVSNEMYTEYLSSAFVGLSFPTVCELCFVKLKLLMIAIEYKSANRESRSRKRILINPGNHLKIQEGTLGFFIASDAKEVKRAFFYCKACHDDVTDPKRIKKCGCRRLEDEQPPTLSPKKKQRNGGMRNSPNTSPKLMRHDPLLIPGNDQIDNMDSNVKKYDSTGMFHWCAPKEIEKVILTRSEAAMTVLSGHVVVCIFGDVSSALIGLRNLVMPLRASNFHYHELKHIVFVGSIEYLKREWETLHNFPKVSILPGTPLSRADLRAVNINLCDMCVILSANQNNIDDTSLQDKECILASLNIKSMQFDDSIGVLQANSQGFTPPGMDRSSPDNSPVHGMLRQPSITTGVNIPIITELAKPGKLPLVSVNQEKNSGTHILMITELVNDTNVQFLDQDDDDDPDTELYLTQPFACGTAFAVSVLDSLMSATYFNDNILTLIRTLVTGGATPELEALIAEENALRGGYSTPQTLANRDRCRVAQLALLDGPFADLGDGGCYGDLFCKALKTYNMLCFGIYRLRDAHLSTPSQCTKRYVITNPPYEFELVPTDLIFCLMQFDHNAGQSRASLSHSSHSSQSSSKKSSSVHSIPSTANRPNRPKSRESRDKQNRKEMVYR
- protocol description: Effect on outward K+ current using two-electrode voltage clamp recording from Xenopus laevis oocyte expressing cloned mSlo at 20 uM
- Format: functional
property: Control (%)

                                   molecule  property  quantity_unit  reported
0  O=C1Nc2ccccc2C1(O)c1cc(Cl)ccc1O (racemic)   Control              %      95.3
1  O=C1Nc2cc(C(F)(F)F)ccc2[C@@]1(O)c1cc(Cl)ccc1O (stereo in doubt; (-)-4e)   Control              %       141
2  O=c1[nH]c2cc(C(F)(F)F)ccc2n1-c1cc(Cl)ccc1O   Control              %       132
3  O=C1Nc2cc(C(F)(F)F)ccc2C1(O)c1ccccc1O (racemic)   Control              %      90.4
4  O=C1Nc2cc(C(F)(F)F)ccc2C1(O)c1cc(Cl)ccc1O (racemic)   Control              %       131
5  O=C1Nc2cc(C(F)(F)F)ccc2[C@@]1(O)c1cc(Cl)ccc1O (stereo in doubt; (+)-4e)   Control              %       124
